Biological target: UniProtKB P01031
Sequence (P01031 19-1676): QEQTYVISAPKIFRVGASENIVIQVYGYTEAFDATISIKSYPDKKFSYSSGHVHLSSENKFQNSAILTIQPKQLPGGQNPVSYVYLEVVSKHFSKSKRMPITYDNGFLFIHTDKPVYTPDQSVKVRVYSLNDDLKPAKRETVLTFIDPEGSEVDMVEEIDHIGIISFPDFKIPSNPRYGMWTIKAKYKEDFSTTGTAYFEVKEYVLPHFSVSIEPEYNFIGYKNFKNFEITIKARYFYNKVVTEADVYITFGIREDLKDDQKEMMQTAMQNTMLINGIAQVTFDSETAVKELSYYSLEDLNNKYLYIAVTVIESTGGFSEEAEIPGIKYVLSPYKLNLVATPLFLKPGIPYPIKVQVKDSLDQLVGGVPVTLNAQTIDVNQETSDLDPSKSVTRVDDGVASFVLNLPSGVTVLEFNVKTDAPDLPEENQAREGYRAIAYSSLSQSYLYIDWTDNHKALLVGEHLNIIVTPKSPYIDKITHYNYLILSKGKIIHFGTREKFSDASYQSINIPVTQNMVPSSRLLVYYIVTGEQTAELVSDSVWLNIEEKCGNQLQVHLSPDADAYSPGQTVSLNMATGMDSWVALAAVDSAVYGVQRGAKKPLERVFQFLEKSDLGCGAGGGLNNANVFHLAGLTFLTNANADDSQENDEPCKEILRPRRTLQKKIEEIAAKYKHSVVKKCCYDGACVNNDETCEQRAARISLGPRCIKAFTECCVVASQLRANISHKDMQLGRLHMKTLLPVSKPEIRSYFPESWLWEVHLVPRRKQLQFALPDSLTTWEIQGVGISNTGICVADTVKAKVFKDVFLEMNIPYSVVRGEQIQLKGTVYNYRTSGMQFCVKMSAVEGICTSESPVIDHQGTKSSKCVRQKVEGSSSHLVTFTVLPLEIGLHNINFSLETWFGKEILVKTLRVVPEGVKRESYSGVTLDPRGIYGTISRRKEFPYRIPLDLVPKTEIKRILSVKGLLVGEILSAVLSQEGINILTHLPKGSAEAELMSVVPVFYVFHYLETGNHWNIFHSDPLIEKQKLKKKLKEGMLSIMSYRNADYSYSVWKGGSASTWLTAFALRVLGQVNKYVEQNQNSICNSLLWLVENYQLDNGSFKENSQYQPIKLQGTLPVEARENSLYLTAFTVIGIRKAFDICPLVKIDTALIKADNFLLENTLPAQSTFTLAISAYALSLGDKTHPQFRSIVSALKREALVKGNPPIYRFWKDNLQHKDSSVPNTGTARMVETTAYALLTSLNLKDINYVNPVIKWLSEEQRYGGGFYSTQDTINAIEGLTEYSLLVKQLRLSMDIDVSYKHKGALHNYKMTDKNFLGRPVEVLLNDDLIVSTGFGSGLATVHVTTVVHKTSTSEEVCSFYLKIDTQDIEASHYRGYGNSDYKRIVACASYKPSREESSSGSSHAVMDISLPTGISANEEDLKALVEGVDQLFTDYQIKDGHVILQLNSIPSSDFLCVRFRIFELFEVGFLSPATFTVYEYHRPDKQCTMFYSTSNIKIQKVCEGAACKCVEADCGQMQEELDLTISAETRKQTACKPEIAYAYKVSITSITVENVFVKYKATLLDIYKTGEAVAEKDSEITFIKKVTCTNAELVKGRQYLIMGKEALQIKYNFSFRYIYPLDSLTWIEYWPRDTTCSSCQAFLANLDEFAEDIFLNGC
Assay: Human hemolysis assay (RBC lysis assay using complete human sera)
Assay type: cell-based
Design: with complete human sera (Complement Technology, Tyler Tex.) and polypeptides; tissue Complement Technology, Tyler Tex; host or cells: complete human serum
Conditions: inhibition of lysis of antibody-sensitized sheep erythrocytes, complete human sera
Starred links: 1 amine or outer side, 2 acyl side, 3 side chain; linkers in the order of their positions; H or OH if unused. Positions of bridges follow the written chain, without caps; N, C: chain ends. Non-standard residues stand in square brackets, D forms with d. Residues, ends and D or L forms follow the SMILES beside them. Trp(7-aza) = N[C@@H](Cc1c[nH]c2ncccc12)C(=O)O; mXylylene = c1cc(C[*:1])cc(C[*:2])c1; Phg = N[C@H](C(=O)O)c1ccccc1; NMeS = CN[C@@H](CO)C(=O)O; Nva = CCC[C@H](N)C(=O)O
Reported Property: IC50

# Compound, Study System, IC50
measured = [
    ("CCC[C@H](NC(=O)[C@@H]1CSCc2cccc(c2)CSC[C@H](NC(=O)[C@H](CCC)NC(C)=O)C(=O)N[C@@H](c2ccccc2)C(=O)N[C@@H]([C@@H](C)O)C(=O)N[C@@H](Cc2c[nH]c3ncccc23)C(=O)N[C@@H](CCC(=O)O)C(=O)N[C@@H](Cc2ccc(O)cc2)C(=O)N(C)[C@@H](CO)C(=O)N[C@@H](Cc2c[nH]cn2)C(=O)N1)C(N)=O [Compound R3012] (Ac-[Nva]C[Phg]T[Trp(7-aza)]EY[NMeS]HC[Nva]-NH2; linker 2-10 via mXylylene)", "UniProtKB P01031", "0.148 µM"),
]

# context switch: different compound, same IC50
For CCC[C@H](NC(=O)[C@@H]1CSCc2cccc(c2)CSC[C@H](NC(=O)[C@@H](NC(C)=O)C(C)C)C(=O)N[C@@H](c2ccccc2)C(=O)N[C@@H]([C@@H](C)O)C(=O)N[C@@H](Cc2c[nH]c3ncccc23)C(=O)N[C@@H](CCC(=O)O)C(=O)N[C@@H](Cc2ccc(O)cc2)C(=O)N(C)[C@@H](CO)C(=O)N[C@@H](C)C(=O)N1)C(N)=O [Compound R3083] (Ac-VC[Phg]T[Trp(7-aza)]EY[NMeS]AC[Nva]-NH2; linker 2-10 via mXylylene) the compound record lists IC50 as > 25 µM
